Please provide measured growth reduction for the entries that follow.
Tested on: Staphylococcus aureus Sa2 (MRSA, cystic fibrosis isolate)
Test: growth reduction vs untreated control (viable cell count); higher = stronger antibacterial activity; extreme values may be limits of the assay
Settings: 0.1 mM; 24 h
Just the number please, in %, no unit attached.

## Input Note down growth reduction recorded for CC(C)(C(=O)NCC(F)(F)C(F)(F)F)C(=O)N[C@@H]1C(=O)Nc2ccccc2-c2ccccc21
## Output 90

## Input Query growth reduction for Cc1ccc2c(=O)c3cccc(CC(=O)O)c3oc2c1C
## Output 100

## Input Give me measured growth reduction, please, for this compound: Cc1cc(C2CCCCC2)n(O)c(=O)c1 [Ciclopirox (olamine)]
## Output 100

## Input Give the measured growth reduction for COCCNCc1ccc(-c2cc3nccc(Oc4ccc(NC(=O)C5(C(=O)Nc6ccc(F)cc6)CC5)cc4F)c3s2)nc1
## Output 100

## Input Entry O=C(CCCCCCNC(=O)c1cnc(N(c2ccccc2)c2ccccc2)nc1)NO needs its growth reduction filled in; supply it.
## Output 100

## Input Look up and state reported growth reduction for OCc1cc([C@@H](O)CNCCCCCCOCCOCc2c(Cl)cccc2Cl)ccc1O
## Output 100

## Input Please indicate growth reduction recorded for Cc1ccc(-c2cc(C(F)(F)F)nn2-c2ccc(S(N)(=O)=O)cc2)cc1
## Output 90

## Input Quote growth reduction reported for C[C@H]1Cc2c([nH]c3cc(Cl)c(F)cc23)[C@@]2(N1)C(=O)Nc1ccc(Cl)cc12 please.
## Output 100

## Input Annotate the compound Nc1ccc2cc3ccc(N)cc3nc2c1 [Proflavine (hemisulfate)] with its measured growth reduction.
## Output 100

## Input Consider the compound CN1CC[C@@H](NC(=O)Nc2ccc(C#N)cc2)C[C@@H]1c1nc2ccccc2[nH]1 and give its recorded growth reduction.
## Output 98

## Input Read off the recorded growth reduction for CCC(c1ccccc1)c1c(O)c2ccccc2oc1=O (configuration not stated)
## Output 95

## Input Consider the compound CCCCCNC(=N)N/N=C/c1c[nH]c2ccc(OC)cc12 [Tegaserod (maleate)] and give its recorded growth reduction.
## Output 100
